- protocol: Drug level in brain of Lewis rat complete Freund's adjuvant-induced hyperalgesia at 100 mg/kg, po and sc at 60 mins
- Format: ADME, organism-based
- Set-up: dose 100 mg/kg, route oral
- assay.context: read-out: Drug uptake
measured.metric: concentration at 1 h (µM)
Report the figure in µM without appending any unit label.

For `O=C(c1cccc(Cl)c1Cl)c1nc(CN2CCOCC2)c2ccccn12` , write its concentration at 1 h. 5.4

* * *

- protocol: Drug level in cerebrospinal fluid of Lewis rat complete Freund's adjuvant-induced hyperalgesia model at 100 mg/kg, po and sc at 60 mins
- Format: ADME, organism-based
- Parameters: dose 100 mg/kg, route oral
- assay.context: read-out: Drug uptake
measured.metric: concentration at 1 h
Kindly write the number and append the unit.

Identify concentration at 1 h associated with the compound `O=C(c1cccc(Cl)c1Cl)c1nc(CN2CCOCC2)c2ccccn12` 110 nM

Source listed as ChEMBL document CHEMBL1759910.
